# System: Candida albicans
# EXPERIMENTAL PARAMETERS: Concentration 32 ug.mL-1; ASSAY_TEST Inhibition of Fungal Growth; detection method Absorption (OD530)
# Description: Antifungal activity against Candida albicans ATCC 90028 (CO-ADD:FG_001); MIC in YNB media using NBS plates, by OD630
Potency and affinity values are given separately.
REPORTED PROPERTY: Inhibition

INSERT INTO results (item_smiles, reported_property, observed_measurement) VALUES
  ('CCc1nnc2c(SCC(=O)Nc3cc(Cl)ccc3C)nc3ccccc3n12', 'Inhibition', '3.09%'),
  ('Cc1ccccc1NC(=O)Cn1nc2c3cc(-c4ccc(Cl)cc4)nn3ccn2c1=O', 'Inhibition', '1.52%'),
  ('O=C(CSc1nnc2c(=O)n(-c3ccccc3)ccn12)c1ccc(F)cc1', 'Inhibition', '4.07%'),
  ('CCOc1ccc(-n2ccn3c(SCC#N)nnc3c2=O)cc1', 'Inhibition', '1.02%');

* * *

# Tested on: Cryptococcus neoformans
# EXPERIMENTAL PARAMETERS: Concentration 32 ug.mL-1; ASSAY_TEST Inhibition of Fungal Growth; detection method Resazurin; Absorption (OD600-OD570); plate type 384well; NBS; CORNING #3640
# Description: Antifungal activity against Cryptococcus neoformans H99 ATCC 208821 (CO-ADD:FG_002); MIC in YNB media using NBS plates, by Resazurin OD(600-570)
Potency and affinity values are given separately.
Assign class by Inhibition: not lower than -20% means true; lower than -20% means false.

INSERT INTO measurements (item_smiles, label_class) VALUES
  ('O=C(Cn1nc2c(SC3CCCCC3)nccn2c1=O)Nc1ccc(F)cc1', 'false'),
  ('CCCCN(C)c1ccc2nnc(CCc3nc(-c4ccc(C(F)(F)F)cc4)no3)n2n1', 'true'),
  ('CN(C(=O)Cn1nc2nc(Nc3ccc(F)cc3)ccn2c1=O)c1ccccc1', 'true'),
  ('O=c1c2nn(Cc3ccc(F)cc3)c(=O)n2ccn1-c1ccccc1', 'true'),
  ('Cc1ccc(NC(=O)Cn2nc3c(SCc4ccccc4)nccn3c2=O)cc1C', 'true'),
  ('Cc1ccc(Cn2c(=O)c3ccccc3n3c(=O)n(CC(=O)Nc4ccc5c(c4)OCCO5)nc23)cc1', 'false'),
  ('CC(C)CCn1c(=O)c2sccc2n2c(=O)n(CC(=O)N3CCC(Cc4ccccc4)CC3)nc12', 'false'),
  ('Cc1cccc(NC(=O)Cn2nc3c(SCc4ccc(Cl)cc4)nccn3c2=O)c1C', 'false'),
  ('Cc1ccc(NC(=O)Cn2c(=O)c3nnc(C(C)C)n3c3ccccc32)c(C)c1', 'true'),
  ('Cc1ccc(C)c(NC(=O)Cn2nc3c(SCc4ccc(Cl)cc4)nccn3c2=O)c1', 'false'),
  ('COc1ccc(NC(=O)Cn2nc3ccc(-c4ccc(Cl)cc4)nn3c2=O)cc1', 'true'),
  ('COc1ccccc1Cn1c(=O)c2sccc2n2c(=O)n(Cc3c(F)cccc3Cl)nc12', 'false'),
  ('Cc1cc(C)c(NC(=O)Cn2nc3ccc(SCc4ccc(Cl)cc4)nn3c2=O)c(C)c1', 'false'),
  ('CCc1ccccc1Sc1nccn2c(=O)n(CC(=O)NCc3cccs3)nc12', 'true'),
  ('Cc1cc(C)cc(NC(=O)Cn2nc3ccc(SCc4ccc(Cl)cc4)nn3c2=O)c1', 'false'),
  ('COc1cccc(Sc2nc3ccccc3n3c(=O)n(CC(=O)Nc4cccc(F)c4)nc23)c1', 'false'),
  ('CCc1nnc2c(SCC(=O)Nc3ccc(Br)cc3)nc3ccccc3n12', 'true'),
  ('CCc1cccc(NC(=O)Cn2nc3ccc(SC(C)(C)C)nn3c2=O)c1', 'false'),
  ('O=C(Cn1nc2c(N3CCOCC3)nccn2c1=O)Nc1ccc(Br)cc1F', 'true'),
  ('Cc1ccc(-n2ccn3c(SCC#N)nnc3c2=O)cc1C', 'true'),
  ('O=C(Cn1nc2c3sc(N4CCCC4)nc3ncn2c1=O)Nc1ccccc1Cl', 'true'),
  ('COc1ccc(NC(=O)Cn2nc3c(SCc4ccc(Cl)cc4)nccn3c2=O)cc1', 'true'),
  ('COc1ccc(OC)c(NC(=O)Cn2nc3c(SCc4ccc(Cl)cc4)nccn3c2=O)c1', 'true'),
  ('COc1ccccc1NC(=O)Cn1nc2c3c4c(sc3ncn2c1=O)CCCC4', 'false'),
  ('CCCNC(=O)Cn1nc2nc(Nc3ccc(F)cc3)ccn2c1=O', 'true'),
  ('Cc1ccc(Oc2nccn3c(=O)n(CC(=O)Nc4ccc(Br)cc4)nc23)cc1', 'true');
